Procedure summary: Phase 1 multiple ascending dose study, plasma pharmacokinetics in healthy adult males
Format: in vivo
Protocol conditions: male, human, oral, 50 mg, 50 mg once daily, fasted, Day 1, read-out: Tmax (median)
Property: Tmax (h)
Numeric answer only, unit h assumed.

stdin: Check the records and state Tmax for [2H]c1c([2H])c([2H])c2c(C(=O)c3cc(Br)c(O)c(Br)c3)c(C(C)O)oc2c1[2H] (racemic) [Compound 1]
stdout: 2

* * *

Procedure summary: Phase 1 single dose study, plasma pharmacokinetics in healthy adult males
Format: in vivo, human
Protocol conditions: male, human, plasma, po, 50 mg, 50 mg single oral, fasted, IR capsule (C7); read-out: t1/2 (converted)
Property: half-life (h)
API: value field is a number in h; no unit string.

stdin: Item [2H]c1c([2H])c([2H])c2c(C(=O)c3cc(Br)c(O)c(Br)c3)c(C(C)O)oc2c1[2H] (racemic) : provide half-life
stdout: 10.5

* * *

Procedure summary: 4-week toxicity study in Sprague-Dawley rats
Assay type: in vivo
Protocol conditions: Sprague-Dawley, rat, in vivo, po
Property: NOAEL at 28 days (mg/kg)
Kindly answer with a numeric value in mg/kg, unit omitted.

stdin: Give NOAEL at 28 days for the following molecule: [2H]c1c([2H])c([2H])c2c(C(=O)c3cc(Br)c(O)c(Br)c3)c(C(C)O)oc2c1[2H] (racemic)
stdout: 50

* * *

Procedure summary: Phase 1 multiple ascending dose study, plasma pharmacokinetics in healthy adult males
Format: in vivo
Protocol conditions: male, human, oral, 25 mg, 25 mg once daily, fasted, Day 10, read-out: AUC0-24
Property: AUC(0-t) (ng·h/mL)
Give the value, in units of ng·h/mL, as a plain number.

stdin: Return AUC(0-t) for the following molecule: [2H]c1c([2H])c([2H])c2c(C(=O)c3cc(Br)c(O)c(Br)c3)c(C(C)O)oc2c1[2H] (racemic)
stdout: 30800

* * *

Procedure summary: Phase 1 multiple ascending dose study, plasma pharmacokinetics in healthy adult males
Assay type: in vivo
Protocol conditions: male, human, oral, 75 mg, 75 mg once daily, fasted, Day 1, read-out: Tmax (median)
Property: Tmax (h)
# output: bare number, implied unit h

stdin: In one line, give reported Tmax of the entry [2H]c1c([2H])c([2H])c2c(C(=O)c3cc(Br)c(O)c(Br)c3)c(C(C)O)oc2c1[2H] (racemic) [Compound 1] .
stdout: 1.75

* * *

Procedure summary: 4-week toxicity study in cynomolgus monkeys
Format: in vivo
Protocol conditions: cynomolgus monkey, in vivo, po
Property: NOAEL at 28 days (mg/kg)
# number only, unit mg/kg dropped from output

stdin: Return the recorded NOAEL at 28 days value; entry: [2H]c1c([2H])c([2H])c2c(C(=O)c3cc(Br)c(O)c(Br)c3)c(C(C)O)oc2c1[2H] (racemic) [Compound 1]
stdout: 30

* * *

Procedure summary: Phase 1 single dose study, plasma pharmacokinetics in healthy adult males
Format: in vivo, human
Protocol conditions: male, human, plasma, po, 50 mg, 50 mg single oral, fasted, suspension (C2); read-out: AUC0-24 (total)
Property: AUC(0-t) (ng·h/mL)
All answers are understood in ng·h/mL, so give the number only.

stdin: Provide only the value of recorded AUC(0-t) for [2H]c1c([2H])c([2H])c2c(C(=O)c3cc(Br)c(O)c(Br)c3)c(C(C)O)oc2c1[2H] (racemic)
stdout: 42600
